# system.under.test: recombinant human OX40 fused to a His-tag (Acro Biosystems, cat. no. OX0-H5224) (human) (UniProt P43489)
# Sequence (P43489 29-214 limits assumed): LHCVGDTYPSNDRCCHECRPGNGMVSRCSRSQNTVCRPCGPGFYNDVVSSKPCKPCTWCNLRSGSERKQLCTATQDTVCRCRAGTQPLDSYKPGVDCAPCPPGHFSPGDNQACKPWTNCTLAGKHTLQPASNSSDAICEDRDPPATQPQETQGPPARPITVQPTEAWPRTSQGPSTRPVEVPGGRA
# measurement.description: BLI cross-block; first Ab (competitor): IgG1-CD134-007
Overview of recorded association response for various binders

IgG1-CD134-GBR830 (antibody, INN chains, looked up, V domains shown, IgG1) VH: QVTLKESGPALVKPTQTLTLTCSFSGFSLSTSGMGVGWIRQPPGKALEWIAHIWWDDDKYYNTALKTRLTISKDTSKNQVVLTMTNMDPVDTATYYCARIDWDGFAYWGQGTLVTVSS VL: EIVLTQSPATLSLSPGERATLSCRASSSVSYMHWYQQKPGQAPRPWIYATSNRATGIPARFSGSGSGTDYTLTISSLEPEDFAVYYCQQWSSNPWTFGQGTKVEIK
0.07 nm

Note to self: association response recorded for IgG1-CD134-MEDI0562 (antibody, INN chains, looked up, V domains shown, IgG1) VH: QVQLQESGPGLVKPSQTLSLTCAVYGGSFSSGYWNWIRKHPGKGLEYIGYISYNGITYHNPSLKSRITINRDTSKNQYSLQLNSVTPEDTAVYYCARYKYDYDGGHAMDYWGQGTLVTVSS VL: DIQMTQSPSSLSASVGDRVTITCRASQDISNYLNWYQQKPGKAPKLLIYYTSKLHSGVPSRFSGSGSGTDYTLTISSLQPEDFATYYCQQGSALPWTFGQGTKVEIK was 1.14 nm

Note to self: association response recorded for IgG1-CD134-Hu106 (antibody, from another filing, V domains shown) VH: QVQLVQSGSELKKPGASVKVSCKASGYTFTDYSMHWVRQAPGQGLKWMGWINTETGEPTYADDFKGRFVFSLDTSVSTAYLQISSLKAEDTAVYYCANPYYDYVSYYAMDYWGQGTTVTVSS VL: DIQMTQSPSSLSASVGDRVTITCKASQDVSTAVAWYQQKPGKAPKLLIYSASYLYTGVPSRFSGSGSGTDFTFTISSLQPEDIATYYCQQHYSTPRTFGQGTKLEIK was 0.05 nm

Note to self: association response recorded for IgG1-CD134-ABBV368 (antibody, INN chains, looked up, V domains shown, IgG1) VH: EVQLVESGGGLVQPGGSLRLSCAASGFTFSRYGMSWVRQAPGKGLELVATINSNGGRTYYPDSVKGRFTISRDNAKNSLYLQMNSLRAEDTAVYYCAREGITTAYAMDYWGQGTTVTVSS VL: DIVMTQSPDSLAVSLGERATINCKASQSVDYDGDSYMHWYQQKPGQPPKLLIYAASILESGVPDRFSGSGSGTDFTLTISSLQAEDVAVYYCQQSNEDPRTFGGGTKVEIK was 0 nm

Note to self: association response recorded for IgG1-CD134-RG7888 (antibody, INN chains, looked up, V domains shown, IgG1) VH: EVQLVQSGAEVKKPGASVKVSCKASGYTFTDSYMSWVRQAPGQGLEWIGDMYPDNGDSSYNQKFRERVTITRDTSTSTAYLELSSLRSEDTAVYYCVLAPRWYFSVWGQGTLVTVSS VL: DIQMTQSPSSLSASVGDRVTITCRASQDISNYLNWYQQKPGKAPKLLIYYTSRLRSGVPSRFSGSGSGTDFTLTISSLQPEDFATYYCQQGHTLPPTFGQGTKVEIK was 0.47 nm
